B1: MATN2 (parent)
chain: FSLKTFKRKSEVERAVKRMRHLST

Variants of: B1
Experiment: protein stability index of a GFP-peptide fusion (GPS, HEK-293T) (PSI 1-6); higher = more stable;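 further: lentivirally expressed fusions sorted by FACS into six bins by GFP to DsRed ratio, PSI derived from sequencing read proportions per bin multiplied by bin number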
Details: c terminus: a fixed tail appended
Label met when protein stability index is at or above 3; anything below gets not met.

[[record]]
variant_string = "E11R"
assigned_category = "met"

[[record]]
variant_string = "F6A"
assigned_category = "not met"

[[record]]
variant_string = "R18C"
assigned_category = "not met"

[[record]]
variant_string = "R18V"
assigned_category = "not met"

[[record]]
variant_string = "M19I"
assigned_category = "met"

[[record]]
variant_string = "K17V"
assigned_category = "not met"

[[record]]
variant_string = "L22V"
assigned_category = "not met"

[[record]]
variant_string = "T24K"
assigned_category = "met"

[[record]]
variant_string = "L22N"
assigned_category = "not met"

[[record]]
variant_string = "A15E"
assigned_category = "not met"

[[record]]
variant_string = "K4G"
assigned_category = "not met"

[[record]]
variant_string = "R18G"
assigned_category = "not met"

[[record]]
variant_string = "S10Q"
assigned_category = "not met"

[[record]]
variant_string = "S2L"
assigned_category = "not met"

[[record]]
variant_string = "S23A"
assigned_category = "not met"

[[record]]
variant_string = "K4T"
assigned_category = "not met"

[[record]]
variant_string = "K4N"
assigned_category = "not met"

[[record]]
variant_string = "K7D"
assigned_category = "not met"

[[record]]
variant_string = "V12N"
assigned_category = "not met"

[[record]]
variant_string = "E11K"
assigned_category = "met"

[[record]]
variant_string = "K9V"
assigned_category = "not met"

